Target sequence: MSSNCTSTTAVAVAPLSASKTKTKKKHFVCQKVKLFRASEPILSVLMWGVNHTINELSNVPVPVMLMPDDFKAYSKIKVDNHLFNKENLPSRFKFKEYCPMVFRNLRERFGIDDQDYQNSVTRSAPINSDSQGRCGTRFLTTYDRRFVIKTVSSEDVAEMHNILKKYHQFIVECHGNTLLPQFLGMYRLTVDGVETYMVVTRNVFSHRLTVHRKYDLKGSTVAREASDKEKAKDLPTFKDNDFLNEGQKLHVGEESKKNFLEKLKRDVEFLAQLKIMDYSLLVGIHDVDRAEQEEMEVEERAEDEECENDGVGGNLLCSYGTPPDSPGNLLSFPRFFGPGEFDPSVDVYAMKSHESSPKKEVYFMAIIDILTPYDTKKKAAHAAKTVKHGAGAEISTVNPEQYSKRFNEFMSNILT
assay-metric: IC50

Tell us which IC50 value is on record for CCN1CCN(Cc2cncc(Nc3ncc4c(n3)C(C)(C)Oc3cc(-n5nncc5C)ccc3-4)c2)CC1 [Compound 17]
1 to 10 nM

Tell us which IC50 value is on record for CC1(C)Oc2cc(N3CCCC3=O)ccc2-c2cnc(Nc3cnc4c(c3)N(C(=O)NCCN3CCOCC3)CCO4)nc21 [Compound 2]
1 to 10 nM

Tell us which IC50 value is on record for CN1CCN(CC(=O)N2CCOc3ncc(Nc4ncc5c(n4)C(C)(C)Oc4cc(N6CCCC6=O)ccc4-5)cc32)CC1 [Compound 22]
10 to 100 nM

Tell us which IC50 value is on record for CC1(C)Oc2cc(N3CCCC3=O)ccc2-c2cnc(Nc3cncc(N4CCN(CCO)CC4)c3)nc21 [Compound 19]
10 to 100 nM

Tell us which IC50 value is on record for CNC(=O)N1CCOc2ncc(Nc3ncc4c(n3)C(C)(C)Oc3cc(N5CCCC5=O)ccc3-4)cc21 [Compound 7]
1 to 10 nM

Tell us which IC50 value is on record for Cc1cnnn1-c1ccc2c(c1)OC(C)(C)c1nc(Nc3cncc(CNCCS(C)(=O)=O)c3)ncc1-2 [Compound 14]
1 to 10 nM

Tell us which IC50 value is on record for Cc1cnnn1-c1ccc2c(c1)OC(C)(C)c1nc(Nc3cnc4c(c3)N(C(=O)N(C)C)CCO4)ncc1-2 [Compound 5]
1 to 10 nM

Tell us which IC50 value is on record for CN1CCOc2ncc(Nc3ncc4c(n3)C(C)(C)Oc3cc(N5C(=O)CCC56CC6)ccc3-4)cc21 [Compound 26]
1 to 10 nM

Tell us which IC50 value is on record for CN(C)C1CCN(c2cncc(Nc3ncc4c(n3)C(C)(C)Oc3cc(N5CCCC5=O)ccc3-4)c2)CC1 [Compound 25]
10 to 100 nM

Tell us which IC50 value is on record for CC1(C)Oc2cc(N3CCCC3=O)ccc2-c2cnc(Nc3cnc4c(c3)N(C(=O)NC3CC3)CCO4)nc21 [Compound 23]
10 to 100 nM

Tell us which IC50 value is on record for CNC(=O)N1CCOc2ncc(Nc3ncc4c(n3)C(C)(C)Oc3cc(-c5nocc5C)ccc3-4)cc21 [Compound 11]
1 to 10 nM

Tell us which IC50 value is on record for Cc1cnnn1-c1ccc2c(c1)OC(C)(C)c1nc(Nc3cncc(N4CCN(CCO)CC4)c3)ncc1-2 [Compound 6]
1 to 10 nM

---

Target sequence: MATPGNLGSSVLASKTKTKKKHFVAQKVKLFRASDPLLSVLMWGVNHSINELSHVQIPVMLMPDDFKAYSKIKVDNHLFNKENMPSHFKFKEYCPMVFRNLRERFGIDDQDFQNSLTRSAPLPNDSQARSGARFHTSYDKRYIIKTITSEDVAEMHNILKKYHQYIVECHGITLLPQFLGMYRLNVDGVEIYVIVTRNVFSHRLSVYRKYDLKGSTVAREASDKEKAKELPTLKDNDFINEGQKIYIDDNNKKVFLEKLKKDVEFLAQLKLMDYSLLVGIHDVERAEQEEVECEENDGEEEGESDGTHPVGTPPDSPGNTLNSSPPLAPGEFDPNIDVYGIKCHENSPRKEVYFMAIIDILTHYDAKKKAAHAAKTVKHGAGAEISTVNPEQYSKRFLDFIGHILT
assay-metric: IC50

Tell us which IC50 value is on record for "C[C@@H]1CCC(=O)N1c1ccc2c(c1)OC(C)(C)c1nc(Nc3cnc4c(c3)N(C(=O)CN(C)C)CCO4)ncc1-2"
0.001 to 0.01 µM

Tell us which IC50 value is on record for "CN1CCN(CC(=O)N2CCOc3ncc(Nc4ncc5c(n4)C(C)(C)Oc4cc(N6CCCC6=O)ccc4-5)cc32)CC1"
0.001 to 0.01 µM

Tell us which IC50 value is on record for "CC1(C)Oc2cc(N3CCCC3=O)ccc2-c2cnc(Nc3cnc4c(c3)N(C(=O)NC3CC3)CCO4)nc21"
0.001 to 0.01 µM

Tell us which IC50 value is on record for "CN1CCN(CC(=O)N(C)c2cncc(Nc3ncc4c(n3)C(C)(C)Oc3cc(N5CCCC5=O)ccc3-4)c2)CC1"
0.1 to 1 µM

Tell us which IC50 value is on record for "CC1(C)Oc2cc(N3CCCC3=O)ccc2-c2cnc(Nc3cncc(CNCCS(C)(=O)=O)c3)nc21"
0.01 to 0.1 µM

Tell us which IC50 value is on record for "CCN1CCN(Cc2cncc(Nc3ncc4c(n3)C(C)(C)Oc3cc(N5CCCC5=O)ccc3-4)c2)CC1"
0.01 to 0.1 µM

---

Task for the reader: assign each of the following compounds its reported IC50.
Target chain: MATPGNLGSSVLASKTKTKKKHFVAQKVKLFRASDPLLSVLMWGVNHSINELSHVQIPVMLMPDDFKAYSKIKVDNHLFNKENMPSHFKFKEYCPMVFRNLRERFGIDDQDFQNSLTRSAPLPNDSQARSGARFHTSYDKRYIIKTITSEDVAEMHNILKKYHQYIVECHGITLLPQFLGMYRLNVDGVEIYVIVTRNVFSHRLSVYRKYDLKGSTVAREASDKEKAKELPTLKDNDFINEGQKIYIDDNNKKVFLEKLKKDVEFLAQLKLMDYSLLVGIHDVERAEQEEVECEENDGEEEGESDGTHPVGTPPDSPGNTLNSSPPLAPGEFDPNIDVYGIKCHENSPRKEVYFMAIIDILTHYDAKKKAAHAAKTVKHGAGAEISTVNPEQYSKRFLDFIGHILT

Tell us which IC50 value is on record for CC1(C)Oc2cc(N3CCCC3=O)ccc2-c2cnc(Nc3cncc(OCCN4CC(F)C4)c3)nc21 [Compound 30]
10 to 100 nM

Tell us which IC50 value is on record for CN1CCOc2ncc(Nc3ncc4c(n3)C(C)(C)Oc3cc(N5C(=O)CCC56CC6)ccc3-4)cc21 [Compound 26]
1 to 10 nM

Tell us which IC50 value is on record for Cc1cnnn1-c1ccc2c(c1)OC(C)(C)c1nc(Nc3cncc(CNCCS(C)(=O)=O)c3)ncc1-2 [Compound 14]
≤ 1 nM

Tell us which IC50 value is on record for Cc1cnnn1-c1ccc2c(c1)OC(C)(C)c1nc(Nc3cnc4c(c3)N(C(=O)NC3CC3)CCO4)ncc1-2 [Compound 9]
≤ 1 nM

Tell us which IC50 value is on record for CNC(=O)N1CCOc2ncc(Nc3ncc4c(n3)C(C)(C)Oc3cc(-n5nncc5C)ccc3-4)cc21 [Compound 8]
≤ 1 nM

Tell us which IC50 value is on record for CN(C)CCOc1cncc(Nc2ncc3c(n2)C(C)(C)Oc2cc(N4CCCC4=O)ccc2-3)c1 [Compound 33]
10 to 100 nM

Tell us which IC50 value is on record for CCN(CC)CCOC(=O)N1CCOc2ncc(Nc3ncc4c(n3)C(C)(C)Oc3cc(N5CCCC5=O)ccc3-4)cc21 [Compound 21]
1 to 10 nM
